system: P388; assay: Minimum effective dose required for antitumor activity against P-388 murine leukemia cells in mice.; type: functional; conditions: Mus musculus, read-out: MED
Could you please report measured minimal effective dose for the items listed next?
Provide the reading as a plain figure in mg/kg.

Entry COC12[C@@H]3N[C@@H]3CN1C1=C(C(=O)C(N3CCN(C)CC3)=C(C)C1=O)[C@@H]2COC(N)=O (some centres undefined) , system P388: what minimal effective dose was measured?
0.2

I'm curious: which minimal effective dose was measured for CO[C@@]12[C@H](COC(N)=O)C3=C(C(=O)C(C)=C(N)C3=O)N1C[C@@H]1N[C@@H]12 tested on P388?
0.2

Which minimal effective dose is reported with P388 for this entry: COC12[C@@H]3N[C@@H]3CN1C1=C(C(=O)C(N3CCCC(C)C3)=C(C)C1=O)[C@@H]2COC(N)=O (some centres undefined) ?
0.2

Give P388 minimal effective dose for COC12[C@@H]3N[C@@H]3CN1C1=C(C(=O)C(N3CCN(c4ccc(C(C)=O)cc4)CC3)=C(C)C1=O)[C@@H]2COC(N)=O (some centres undefined)
0.4

* * *

experiment: E1/2 value related to the saturated calomal electrode.; format: ADME; set-up: unit not given here
Threshold 0.3: E1/2 strictly smaller gives satisfied, otherwise not satisfied.

Quick check: does COC12[C@@H]3N[C@@H]3CN1C1=C(C(=O)C(N3CC3)=C(C)C1=O)[C@@H]2COC(N)=O (some centres not stated) have E1/2 under 0.3?
not satisfied

Please state whether E1/2 is below 0.3 for COC12[C@@H]3N[C@@H]3CN1C1=C(C(=O)C(N(C)CCN(C)C)=C(C)C1=O)[C@@H]2COC(N)=O (some centres not stated)
not satisfied

Is E1/2 strictly under 0.3 for the entry COC12[C@@H]3N[C@@H]3CN1C1=C(C(=O)C(N3CCN(C)CC3)=C(C)C1=O)[C@@H]2COC(N)=O (some centres not stated) ?
satisfied

Is E1/2 of COC12[C@@H]3N[C@@H]3CN1C1=C(C(=O)C(N3CCN(C=O)CC3)=C(C)C1=O)[C@@H]2COC(N)=O (some centres not stated) strictly below 0.3?
satisfied

Field: below-cutoff. Rule: recorded E1/2 strictly less than 0.3. Subject: COC12[C@@H]3N[C@@H]3CN1C1=C(C(=O)C(N3CCCC(O)C3)=C(C)C1=O)[C@@H]2COC(N)=O (some centres not stated)
satisfied

is_below(E1/2, 0.3) for COC12[C@@H]3N[C@@H]3CN1C1=C(C(=O)C(N3CCC(O)C3)=C(C)C1=O)[C@@H]2COC(N)=O (some centres not stated) ?
not satisfied

Please indicate whether the reported E1/2 of COC12[C@@H]3N[C@@H]3CN1C1=C(C(=O)C(N3CCCCC3)=C(C)C1=O)[C@@H]2COC(N)=O (some centres not stated) is strictly below 0.3.
satisfied

* * *

assay: E1/2 value related to the saturated calomal electrode.; assay type: ADME; parameters: unit not given here
For each record, write down the corresponding E1/2.
Give a plain numeric answer without units written out.

I'd like to know its E1/2. The compound in question is COC12[C@@H]3N[C@@H]3CN1C1=C(C(=O)C(N3CCNCC3)=C(C)C1=O)[C@@H]2COC(N)=O (some centres undefined)
0.26

Which E1/2 value belongs to COC12[C@@H]3N[C@@H]3CN1C1=C(C(=O)C(N3CC3C#N)=C(C)C1=O)[C@@H]2COC(N)=O (some centres undefined) ?
0.3

Need E1/2 of COC12[C@@H]3N[C@@H]3CN1C1=C(C(=O)C(N3CCSC3)=C(C)C1=O)[C@@H]2COC(N)=O (some centres undefined) , thanks.
0.39

Reported E1/2 for CO[C@@]12[C@H](COC(N)=O)C3=C(C(=O)C(C)=C(N)C3=O)N1C[C@@H]1N[C@@H]12 : what is it?
-0.45

* * *

system: P388; test: Minimum effective dose required for antitumor activity against P-388 murine leukemia cells in mice.; type: functional; settings: Mus musculus, read-out: MED
Answer each item with its documented minimal effective dose.
Express the result in mg/kg but write the number alone.

Record request: minimal effective dose value, item COC12[C@@H]3N[C@@H]3CN1C1=C(C(=O)C(N3CC3)=C(C)C1=O)[C@@H]2COC(N)=O (stereo partly drawn)
0.025

Suppose we examine the compound COC12[C@@H]3N[C@@H]3CN1C1=C(C(=O)C(N(C)C)=C(C)C1=O)[C@@H]2COC(N)=O (stereo partly drawn) ; what minimal effective dose value has been reported?
0.2

Value lookup for minimal effective dose; key = COC12[C@@H]3N[C@@H]3CN1C1=C(C(=O)C(N3CCNCC3)=C(C)C1=O)[C@@H]2COC(N)=O (stereo partly drawn)
0.2

# input compound: COC12[C@@H]3N[C@@H]3CN1C1=C(C(=O)C(N3CCCC3)=C(C)C1=O)[C@@H]2COC(N)=O (stereo partly drawn) ; wanted: its minimal effective dose
0.4

Field request: minimal effective dose | item: COC12[C@@H]3N[C@@H]3CN1C1=C(C(=O)C(N3CCC(N4CCCCC4)CC3)=C(C)C1=O)[C@@H]2COC(N)=O (stereo partly drawn)
1.6

Which value of minimal effective dose has been reported for COC12[C@@H]3N[C@@H]3CN1C1=C(C(=O)C(N3CCN(C=O)CC3)=C(C)C1=O)[C@@H]2COC(N)=O (stereo partly drawn) in the records?
0.2

Can you look up the measured minimal effective dose of COC12[C@@H]3N[C@@H]3CN1C1=C(C(=O)C(N3CCCCC3)=C(C)C1=O)[C@@H]2COC(N)=O (stereo partly drawn) for me?
0.2

Would you mind telling me what minimal effective dose value was observed for COC12[C@@H]3N[C@@H]3CN1C1=C(C(=O)C(N3CCSC3)=C(C)C1=O)[C@@H]2COC(N)=O (stereo partly drawn) ?
0.2

* * *

tested on: P388; test: Maximum % T/C against P-388 murine leukemia cells in mice.; type: functional, Mus musculus
Reported metric: T/C

Hi! What's the reported T/C for CCOC(=O)C1CN1C1=C(C)C(=O)C2=C(C1=O)[C@H](COC(N)=O)C1(OC)[C@@H]3N[C@@H]3CN21 (stereo not given in full) on P388?
133%

# get_value(readout= T/C, system= P388) for COC12[C@@H]3N[C@@H]3CN1C1=C(C(=O)C(N3CCC(N4CCCCC4)CC3)=C(C)C1=O)[C@@H]2COC(N)=O (stereo not given in full)
194%

What reported T/C corresponds to COC12[C@@H]3N[C@@H]3CN1C1=C(C(=O)C(N3CC3)=C(C)C1=O)[C@@H]2COC(N)=O (stereo not given in full) on P388?
266%

For P388, provide T/C of COC12[C@@H]3N[C@@H]3CN1C1=C(C(=O)C(N3CCSC3)=C(C)C1=O)[C@@H]2COC(N)=O (stereo not given in full) please.
222%

Query for P388: what T/C does the record show for COC(=O)C1CN1C1=C(C)C(=O)C2=C(C1=O)[C@H](COC(N)=O)C1(OC)[C@@H]3N[C@@H]3CN21 (stereo not given in full) ?
147%

Can you look up T/C on P388 for COC12[C@@H]3N[C@@H]3CN1C1=C(C(=O)C(N3CCc4ccccc43)=C(C)C1=O)[C@@H]2COC(N)=O (stereo not given in full) ?
150%

# query: T/C | item CO[C@@]12[C@H](COC(N)=O)C3=C(C(=O)C(C)=C(N)C3=O)N1C[C@@H]1N[C@@H]12 | system: P388
161%

Notebook: pull reported T/C for P388, entry COC12[C@@H]3N[C@@H]3CN1C1=C(C(=O)C(N3CC3C)=C(C)C1=O)[C@@H]2COC(N)=O (stereo not given in full)
233%

Observed T/C on P388 for COC12[C@@H]3N[C@@H]3CN1C1=C(C(=O)C(N3CCN(c4ccc(C(C)=O)cc4)CC3)=C(C)C1=O)[C@@H]2COC(N)=O (stereo not given in full) , please.
161%

For the record COC12[C@@H]3N[C@@H]3CN1C1=C(C(=O)C(N3CCNCC3)=C(C)C1=O)[C@@H]2COC(N)=O (stereo not given in full) , what value of T/C is listed for P388?
200%

Form field - read-out: T/C; system: P388; submitted item: COC12[C@@H]3N[C@@H]3CN1C1=C(C(=O)C(N3CCC(O)C3)=C(C)C1=O)[C@@H]2COC(N)=O (stereo not given in full)
163%

Reported T/C for P388, given COC12[C@@H]3N[C@@H]3CN1C1=C(C(=O)C(N3CCOCC3)=C(C)C1=O)[C@@H]2COC(N)=O (stereo not given in full) ?
271%

Checklist item: T/C tested on P388, entry COC12[C@@H]3N[C@@H]3CN1C1=C(C(=O)C(N3CCCC3)=C(C)C1=O)[C@@H]2COC(N)=O (stereo not given in full) , value?
>333%

Record lookup: for P388, what T/C belongs to COC12[C@@H]3N[C@@H]3CN1C1=C(C(=O)C(N3CCC(O)(O)CC3)=C(C)C1=O)[C@@H]2COC(N)=O (stereo not given in full) ?
231%

What value of T/C on P388 does COC12[C@@H]3N[C@@H]3CN1C1=C(C(=O)C(N3CCCC(O)C3)=C(C)C1=O)[C@@H]2COC(N)=O (stereo not given in full) have?
250%

Data origin: ChEMBL document CHEMBL1122452
